# EXPERIMENTAL SYSTEM: T1, monkey NPR1 extracellular domain expressed with a C-terminal myc-myc-hexahistidine (mfNPR1-MMH) (monkey, UniProt P16066 33-473 (human entry))
# T1 construct: also called monomeric monkey NPR1
# T1 chain: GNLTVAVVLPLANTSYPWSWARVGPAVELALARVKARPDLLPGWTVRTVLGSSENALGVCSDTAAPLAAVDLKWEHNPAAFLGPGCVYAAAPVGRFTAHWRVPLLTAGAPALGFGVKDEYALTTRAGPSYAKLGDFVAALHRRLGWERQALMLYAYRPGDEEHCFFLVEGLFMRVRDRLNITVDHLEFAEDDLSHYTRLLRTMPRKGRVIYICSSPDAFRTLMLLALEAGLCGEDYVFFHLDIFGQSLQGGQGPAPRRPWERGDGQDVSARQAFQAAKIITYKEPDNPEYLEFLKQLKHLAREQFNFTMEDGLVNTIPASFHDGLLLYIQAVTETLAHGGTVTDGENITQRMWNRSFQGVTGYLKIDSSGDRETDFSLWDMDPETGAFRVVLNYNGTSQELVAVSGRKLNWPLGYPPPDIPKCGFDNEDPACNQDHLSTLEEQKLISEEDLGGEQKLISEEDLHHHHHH
# TEST DESCRIPTION: SPR, mAb captured, 25 C

[
  {
    "BINDER": "mAb22809 (antibody, V domains shown) VH: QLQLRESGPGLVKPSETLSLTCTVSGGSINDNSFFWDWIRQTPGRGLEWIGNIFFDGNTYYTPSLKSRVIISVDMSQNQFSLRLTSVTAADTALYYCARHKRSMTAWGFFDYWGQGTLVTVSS VL: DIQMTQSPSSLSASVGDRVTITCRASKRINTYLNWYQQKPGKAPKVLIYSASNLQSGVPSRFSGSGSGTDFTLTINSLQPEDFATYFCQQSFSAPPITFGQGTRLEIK",
    "100 nM Ag Bound (RU)": 0
  },
  {
    "BINDER": "mAb25491 (antibody, V domains shown) VH: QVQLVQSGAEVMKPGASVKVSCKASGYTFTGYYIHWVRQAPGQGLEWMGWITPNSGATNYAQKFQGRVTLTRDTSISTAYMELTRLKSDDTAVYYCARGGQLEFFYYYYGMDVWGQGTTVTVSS VL: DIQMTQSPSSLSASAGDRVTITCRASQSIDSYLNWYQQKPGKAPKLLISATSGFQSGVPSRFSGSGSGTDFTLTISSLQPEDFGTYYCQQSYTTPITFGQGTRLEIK",
    "100 nM Ag Bound (RU)": 81
  },
  {
    "BINDER": "mAb25479 (antibody, V domains shown) VH: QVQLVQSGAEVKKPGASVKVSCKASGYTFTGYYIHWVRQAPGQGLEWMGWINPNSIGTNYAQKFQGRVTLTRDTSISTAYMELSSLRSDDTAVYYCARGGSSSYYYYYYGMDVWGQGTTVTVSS VL: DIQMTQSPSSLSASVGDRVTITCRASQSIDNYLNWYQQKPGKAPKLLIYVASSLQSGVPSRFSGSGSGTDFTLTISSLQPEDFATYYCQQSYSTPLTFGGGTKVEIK",
    "100 nM Ag Bound (RU)": 41
  },
  {
    "BINDER": "mAb25497 (antibody, V domains shown) VH: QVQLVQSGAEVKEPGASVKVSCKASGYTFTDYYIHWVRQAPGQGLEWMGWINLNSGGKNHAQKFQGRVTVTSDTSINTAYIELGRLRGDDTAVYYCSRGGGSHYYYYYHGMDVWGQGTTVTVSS VL: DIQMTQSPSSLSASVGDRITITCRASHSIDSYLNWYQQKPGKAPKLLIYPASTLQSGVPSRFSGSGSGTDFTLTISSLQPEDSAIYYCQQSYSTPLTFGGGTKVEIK",
    "100 nM Ag Bound (RU)": 49
  },
  {
    "BINDER": "mAb22035 (antibody, V domains shown) VH: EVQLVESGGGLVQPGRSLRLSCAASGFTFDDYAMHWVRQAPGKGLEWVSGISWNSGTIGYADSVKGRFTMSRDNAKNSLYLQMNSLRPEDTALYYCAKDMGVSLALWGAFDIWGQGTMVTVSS VL: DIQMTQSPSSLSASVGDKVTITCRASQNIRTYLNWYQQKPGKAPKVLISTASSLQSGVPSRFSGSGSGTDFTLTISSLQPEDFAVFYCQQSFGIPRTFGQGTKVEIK",
    "100 nM Ag Bound (RU)": 245
  }
]
